molecular target: UniProt P9WP31; experiment: DdlA inhibition, PK/LDH-coupled assay detecting ADP release (NADH decrease); type: biochemical; conditions: mean of n = 3
MEASUREMENT_TYPE: IC50 (µM)
Answer with a number only, understood to be in µM.

In: Identify IC50 associated with the compound OC1(c2ccc(OC(F)F)cc2)C[N+](c2ccccc2)=C2CCCCN21 (stereo not shown) [IMB-0283]
Out: 6.16

* * *

molecular target: Mtb DdlA (Mycobacterium tuberculosis); assay: DdlA inhibition, PK/LDH-coupled assay detecting ADP release (NADH decrease); assay type: biochemical; details: printed in Figure 3B
Sequence (P9WP31 whole entry, looked up): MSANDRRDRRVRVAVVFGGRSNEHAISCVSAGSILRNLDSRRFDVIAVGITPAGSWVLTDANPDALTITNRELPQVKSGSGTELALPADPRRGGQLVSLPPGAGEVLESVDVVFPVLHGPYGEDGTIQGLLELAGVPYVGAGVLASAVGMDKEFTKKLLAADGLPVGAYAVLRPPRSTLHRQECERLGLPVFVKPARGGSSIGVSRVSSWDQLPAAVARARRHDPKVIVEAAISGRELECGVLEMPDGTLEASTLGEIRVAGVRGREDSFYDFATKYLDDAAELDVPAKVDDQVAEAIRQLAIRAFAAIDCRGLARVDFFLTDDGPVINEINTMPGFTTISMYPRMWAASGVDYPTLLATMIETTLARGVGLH
MEASUREMENT_TYPE: IC50

In: Assign IC50 to the following record: OC1(c2ccc(OC(F)F)cc2)C[N+](c2ccccc2)=C2CCCCN21 (stereo not shown)
Out: 7.62 µM
